- Tested on: HLA-A24
- Assay Summary: Peptide stability assay on CIR-A24 cells (brefeldin A)
- Type: binding
- Assay Context: 50 μg/mL peptide + 5 μg/mL β2-microglobulin, 24 hours, then 50 μg/mL brefeldin A for 4 hours, FITC anti-HLA-A24 staining, MFI with peptide / MFI without peptide, average of the two assays
Measured Stability MFI ratio by item

Sequence Text | Stability MFI ratio
LQDMNAMVL [PEPP2^25-33] | 0.761
CSQYMTSSL [PEPP2^7-15] | 1.041
ERIFQREQF [PEPP2^150-158] | 0.690
QYSRPQGAV [PEPP2^117-125] | 0.977
QLQELERIF [PEPP2^145-153] | 1.071
PFPPPSLPL [PEPP2^248-256] | 0.926
EFGPFPFVI [PEPP2^271-279] | 1.201
RALMARNML [PEPP2^194-202] | 0.599
DMNAMVSL [PEPP2^27-35] | 0.831
TYGPVFMCL [EBV, reference compound] | 1.320
FVIVPSFTF [PEPP2^277-285] | 0.928
FTPLQLQEL [PEPP2^141-149] | 0.687
QGTAAGEKL [PEPP2^52-60] | 0.938
RPQGAVGGL [PEPP2^120-128] | 0.754

Hey, just so you know, these numbers are from paper PMC4718592.
